Experiment Summary: in vitro
Condition Label: human, hela cells, % viability
Observation Type: viability at 28.5 h, 10 µM (%)

* CN(C)C(=O)C1(Cc2ccccc2-c2cccs2)CCN(C(=O)Cc2ccccc2)CC1 | 92.6
* CCCn1c(SCC(=O)NCc2ccc(OC)cc2)n[nH]c1=O | 90.2
* CCNC(=O)N1CC2(CCN(CCS(=O)(=O)c3ccccc3)CC2)c2ccccc21 | 90.9
* COc1cc(OC)nc(C(NC(=O)C2CCN(Cc3ccc(N(C)C)cc3)CC2)c2ccc(F)cc2)n1 (centres unmarked) | 88.9
* CCNC(=O)Nc1ccc(-c2ccc(S(C)(=O)=O)cc2)c2ccccc12 | 88.1
* COc1ccc(OC(=O)c2cc(S(=O)(=O)N3CCOCC3)ccc2Cl)cc1 | 88.9
* CC(CNC(=O)COc1cc(Cl)c(Cl)cc1Cl)CN(C)C (centres unmarked) | 88.1
* Cc1nn(C)cc1-c1cncn1CCOc1ccc(Cl)cc1 | 87.5
